Tested on: BDF1 mice, P388 leukemia ip, median survival T/C
Assay: NCI In Vivo Anticancer Drug Screen. Data for tumor model P388 Leukemia (intraperitoneal) in B6D2F1 (BDF1) mice
Settings: endpoint: median survival time; dose: 200.0 mg/kg/injection; schedule: Q01DX009 (ip); vehicle: saline with Tween-80; higher = longer survival
Toxic doses and inconclusive results are not listed.
MEASURED_METRIC: T/C

Recorded results for 2 compounds are shown here.
[
  {
    "COMPOUND": "CCOC(=O)c1cc(N)c(C(=O)OCC)cc1N",
    "TEST_TARGET": "BDF1 mice, P388 leukemia ip, median survival T/C",
    "T/C": "106 % of control"
  },
  {
    "COMPOUND": "CNC(=S)ON1CCCCC1",
    "TEST_TARGET": "BDF1 mice, P388 leukemia ip, median survival T/C",
    "T/C": "121 % of control"
  }
]

Challenge: Please indicate T/C recorded for O=C(Nc1ccc(F)cc1)C(F)(F)F
Response given: 105 % of control

Challenge: Please indicate T/C recorded for c1ccc2c3c(ccc2c1)OCCOCCOc1ccc2ccccc2c1-3
Response given: 92 % of control

Challenge: Please indicate T/C recorded for Cc1[nH]c(N)nc(=S)c1CCC(=O)Nc1ccc(C(=O)NC(CCC(=O)O)C(=O)O)cc1 (stereo not given)
Response given: 101 % of control

###

System: BDF1 mice, P388 leukemia ip, median survival T/C
Test: NCI In Vivo Anticancer Drug Screen. Data for tumor model P388 Leukemia (intraperitoneal) in B6D2F1 (BDF1) mice
Details: endpoint: median survival time; dose: 400.0 mg/kg/injection; schedule: Q04DX003 (ip); vehicle: saline with Tween-80; higher = longer survival
Inconclusive results and toxic doses are left out.
MEASURED_METRIC: T/C

Recorded results for 5 compounds are shown here.
[
  {
    "COMPOUND": "COc1ccc(N=C/C=C/c2ccccc2)cc1",
    "OBSERVED_RESULT": "109 % of control"
  },
  {
    "COMPOUND": "Cc1ccc(-c2nn3c(-c4ccccc4)nnc3o2)cc1",
    "OBSERVED_RESULT": "105 % of control"
  },
  {
    "COMPOUND": "COc1ccc(C2(C(=O)O)CC2)cc1",
    "OBSERVED_RESULT": "113 % of control"
  },
  {
    "COMPOUND": "CC/C(=C(\\CC)c1ccc(OC)cc1)c1ccc(O)cc1",
    "OBSERVED_RESULT": "95 % of control"
  },
  {
    "COMPOUND": "C/C=C/C1CC(OC)=CC(=O)O1 (stereo not drawn)",
    "OBSERVED_RESULT": "97 % of control"
  }
]

Attention now shifts to the item below.
Challenge: Please indicate T/C recorded for CN(C)c1ccc(CC2Cc3ccccc3C2=O)cc1 (stereo not drawn)
Response given: 95 % of control

###

System: BDF1 mice, P388 leukemia ip, median survival T/C
Experiment: NCI In Vivo Anticancer Drug Screen. Data for tumor model P388 Leukemia (intraperitoneal) in B6D2F1 (BDF1) mice
Settings: endpoint: median survival time; dose: 200.0 mg/kg/injection; schedule: Q04DX003 (ip); vehicle: saline with Tween-80; higher = longer survival
Protocol: The antitumor activity of compounds was measured in mice bearing transplantable tumors. Survival or tumor size were measured and the results are expressed as the measurement made in the treated group (T) divided by the measurement made in the vehicle treated control group (C). The tumor model used in this assay is P388 Leukemia (intraperitoneal) in B6D2F1 (BDF1) mice
Inconclusive results and toxic doses are left out.
MEASURED_METRIC: T/C

[
  {
    "COMPOUND": "CCOc1c(Br)cc(Br)cc1C=O",
    "MEASURED_METRIC": "T/C",
    "OBSERVED_RESULT": "109 % of control"
  },
  {
    "COMPOUND": "O=c1cc(-c2ccccc2)ss1",
    "MEASURED_METRIC": "T/C",
    "OBSERVED_RESULT": "111 % of control"
  },
  {
    "COMPOUND": "NC(=O)NC(C(=O)O)(c1ccccc1)C1CCC1 (configuration not stated)",
    "MEASURED_METRIC": "T/C",
    "OBSERVED_RESULT": "95 % of control"
  }
]

Challenge: Please indicate T/C recorded for CN(C)C(=O)c1cccc(NCc2ccc3nc(N)nc(N)c3c2)c1
Response given: 104 % of control

Challenge: Please indicate T/C recorded for COC(OC)c1nc(N)[nH]c(=O)c1Cc1ccc(C)c2ccccc12
Response given: 100 % of control

Challenge: Please indicate T/C recorded for Cc1[o+]c(C)c2c(c1C)-c1ccccc1C2=O
Response given: 116 % of control

Challenge: Please indicate T/C recorded for OC(CC(O)(C(F)(F)F)C(F)(F)F)c1ccccc1 (configuration not stated)
Response given: 118 % of control
